# tgt: BACE1 (Homo sapiens)
# Construct: purchased RD System, Inc. (WI, USA)
# Sequence (P56817 46-501): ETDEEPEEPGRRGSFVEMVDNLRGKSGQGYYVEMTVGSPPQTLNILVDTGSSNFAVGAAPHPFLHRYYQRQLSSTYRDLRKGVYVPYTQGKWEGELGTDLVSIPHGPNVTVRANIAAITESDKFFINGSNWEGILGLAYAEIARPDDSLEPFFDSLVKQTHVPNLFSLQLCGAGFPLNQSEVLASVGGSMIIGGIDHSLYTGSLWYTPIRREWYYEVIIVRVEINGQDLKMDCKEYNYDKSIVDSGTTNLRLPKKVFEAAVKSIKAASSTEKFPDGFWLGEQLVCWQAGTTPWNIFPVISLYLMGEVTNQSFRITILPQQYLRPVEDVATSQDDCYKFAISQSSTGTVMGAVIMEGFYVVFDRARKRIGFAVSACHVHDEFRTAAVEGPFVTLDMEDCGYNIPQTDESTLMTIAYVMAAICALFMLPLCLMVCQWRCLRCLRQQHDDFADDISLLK
# assay.summary: BACE1 FRET peptide cleavage assay
# Assay type: biochemical
# assay.setup: BACE1 activity; mean of three experiments ± SD
measure: pIC50
pIC50 (log units): -log10 of the concentration in mol/L.

Examples with their reported pIC50 follow.
{"columns": ["compound", "measure", "numeric.result"],
 "data": [
  ["O=C(/C=C/c1ccc(O)c(O)c1)c1ccc(NS(=O)(=O)c2ccccc2)cc1 [Compound 5b]", "pIC50", 5.34],
  ["Nc1ccc(S(=O)(=O)Nc2ccc(C(=O)/C=C/c3ccc(O)c(O)c3)cc2)cc1 [Compound 5d]", "pIC50", 6.16],
  ["O=C(/C=C/c1ccc(O)c(O)c1)c1ccc(NS(=O)(=O)c2ccc(F)cc2)cc1 [Compound 5f]", "pIC50", 5.05]
]}

[ask] # get_value(readout='pIC50', item= O=C(/C=C/c1ccc(O)cc1)c1ccc(NS(=O)(=O)c2ccccc2)cc1 [Compound 4c] )
[reply] 5.20

[ask] # get_value(readout='pIC50', item= Nc1ccc(C(=O)/C=C/c2ccc(O)c(O)c2)cc1 [Compound 2, 4′-Amino-3,4-dihydroxychalcone] )
[reply] 4.75

[ask] # get_value(readout='pIC50', item= Cc1ccc(S(=O)(=O)Nc2ccc(C(=O)/C=C/c3ccc(O)c(O)c3)cc2)cc1 [Compound 5a] )
[reply] 6.68

[ask] # get_value(readout='pIC50', item= O=C(/C=C/c1ccc(O)c(O)c1)c1ccc(NS(=O)(=O)c2ccc([N+](=O)[O-])cc2)cc1 [Compound 5e] )
[reply] 3.99
